Test system: NCI-H196 complex spheroid viability
assay_method_text: Anticancer human tumor NCI-H196 cell line growth inhibition [LSD1];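 note: spheroids exposed to agents for 7 days before readout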;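 for viability, T/C: 100% = DMSO vehicle control viability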
condition_set: second compound 3.16 µM; first compound 0.003 µM; stronger effect = lower value
Each entry below lists one item and its recorded viability, T/C value.
Write it as a number; the unit % goes unstated.

Would you please look over these solved cases?
> print(dat)
                                   compound  unit.abbreviation   val
1  CCc1c2c(nc3ccc(O)cc13)-c1cc3c(c(=O)n1C2)COC(=O)[C@]3(O)CC + NC1CC1c1ccc(-c2cccc(O)c2)cc1                  %  81.2
2  Nc1ccn(C2OC(CO)C(O)C2(F)F)c(=O)n1 (stereo unspecified) + NC1CC1c1ccc(-c2cccc(O)c2)cc1                  %   104

Attention now shifts to the item below.
The reported value for CCc1c2c(nc3ccc(O)cc13)-c1cc3c(c(=O)n1C2)COC(=O)[C@]3(O)CC + NC1CCC(NC2CC2c2ccccc2)CC1 in terms of viability, T/C is 91.2

====

Test system: NCI-H196 complex spheroid viability
assay_method_text: Anticancer human tumor NCI-H196 cell line growth inhibition [LSD1];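 note: spheroids exposed to agents for 7 days before readout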;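 for viability, T/C: 100% = DMSO vehicle control viability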
condition_set: second compound 1 µM; first compound 0.316 µM; stronger effect = lower value
Each entry below lists one item and its recorded viability, T/C value.
Write it as a number; the unit % goes unstated.

compound	viability, T/C [%]
CC1(C)CCC(CN2CCN(c3ccc(C(=O)NS(=O)(=O)c4ccc(NCC5CCOCC5)c([N+](=O)[O-])c4)c(Oc4cnc5[nH]ccc5c4)c3)CC2)=C(c2ccc(Cl)cc2)C1 + NC1CCC(NC2CC2c2ccccc2)CC1	101
CC1(C)CCC(CN2CCN(c3ccc(C(=O)NS(=O)(=O)c4ccc(NCC5CCOCC5)c([N+](=O)[O-])c4)c(Oc4cnc5[nH]ccc5c4)c3)CC2)=C(c2ccc(Cl)cc2)C1 + NC1CC1c1ccc(-c2cccc(O)c2)cc1	95.6

The reported value for COc1cc(Nc2ncc3c(n2)-c2ccc(Cl)cc2C(c2c(F)cccc2OC)=NC3)ccc1C(=O)O + NC1CC1c1ccc(-c2cccc(O)c2)cc1 in terms of viability, T/C is 116

The reported value for CC1COCCN1c1cc(-c2ccnn2C)c2ccnc(-c3ccn[nH]3)c2n1 (centres undefined) + NC1CC1c1ccc(-c2cccc(O)c2)cc1 in terms of viability, T/C is 51.4

====

Tested on: NCI-H196 complex spheroid viability
assay_method_text: Anticancer human tumor NCI-H196 cell line growth inhibition [LSD1]; active means viability on the fitted dose curve at most 10% of control; inactive means the rest;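 note: spheroids exposed to agents for 7 days before readout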
condition_set: second compound 3.16 µM; first compound 0.1 µM
Permitted responses: active, inactive

molecule	class
CC1COCCN1c1cc(-c2ccnn2C)c2ccnc(-c3ccn[nH]3)c2n1 (stereo unspecified) + NC1CCC(NC2CC2c2ccccc2)CC1	inactive
CC1COCCN1c1cc(-c2ccnn2C)c2ccnc(-c3ccn[nH]3)c2n1 (stereo unspecified) + NC1CC1c1ccc(-c2cccc(O)c2)cc1	inactive
Cn1ncnc1C1c2n[nH]c(=O)c3cc(F)cc(c23)NC1c1ccc(F)cc1 (stereo unspecified) + NC1CCC(NC2CC2c2ccccc2)CC1	inactive
CC1(C)CCC(CN2CCN(c3ccc(C(=O)NS(=O)(=O)c4ccc(NCC5CCOCC5)c([N+](=O)[O-])c4)c(Oc4cnc5[nH]ccc5c4)c3)CC2)=C(c2ccc(Cl)cc2)C1 + NC1CC1c1ccc(-c2cccc(O)c2)cc1	inactive
CC(C)CC(NC(=O)C(Cc1ccccc1)NC(=O)c1cnccn1)B(O)O (stereo unspecified) + NC1CC1c1ccc(-c2cccc(O)c2)cc1	active
CC(C)CC(NC(=O)CNC(=O)c1cc(Cl)ccc1Cl)B1OC(=O)CC(CC(=O)O)(C(=O)O)O1 (stereo unspecified) + NC1CC1c1ccc(-c2cccc(O)c2)cc1	active
O=C(C=Cn1cnc(-c2cc(C(F)(F)F)cc(C(F)(F)F)c2)n1)NNc1cnccn1 + NC1CC1c1ccc(-c2cccc(O)c2)cc1	inactive
CC[C@@]1(O)C(=O)OCc2c1cc1n(c2=O)Cc2cc3c(CN(C)C)c(O)ccc3nc2-1 + NC1CCC(NC2CC2c2ccccc2)CC1	inactive

Just curious, what result did CC1(C)CCC(CN2CCN(c3ccc(C(=O)NS(=O)(=O)c4ccc(NCC5CCOCC5)c([N+](=O)[O-])c4)c(Oc4cnc5[nH]ccc5c4)c3)CC2)=C(c2ccc(Cl)cc2)C1 + NC1CCC(NC2CC2c2ccccc2)CC1 get here?
inactive

Just curious, what result did CC(C)CC(NC(=O)CNC(=O)c1cc(Cl)ccc1Cl)B1OC(=O)CC(CC(=O)O)(C(=O)O)O1 (stereo unspecified) + NC1CCC(NC2CC2c2ccccc2)CC1 get here?
active

Just curious, what result did Cn1ncnc1C1c2n[nH]c(=O)c3cc(F)cc(c23)NC1c1ccc(F)cc1 (stereo unspecified) + NC1CC1c1ccc(-c2cccc(O)c2)cc1 get here?
inactive

====

System: NCI-H196 complex spheroid viability
assay_method_text: Anticancer human tumor NCI-H196 cell line growth inhibition [LSD1];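 note: spheroids exposed to agents for 7 days before readout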;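 for viability, T/C: 100% = DMSO vehicle control viability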
condition_set: second compound 0.316 µM; first compound 0.1 µM; stronger effect = lower value
property: viability, T/C (%)
Write it as a number; the unit % goes unstated.

Would you please look over these solved cases?
> print(dat)
                                   compound  unit.abbreviation   val
1  COc1cc(Nc2ncc3c(n2)-c2ccc(Cl)cc2C(c2c(F)cccc2OC)=NC3)ccc1C(=O)O + NC1CC1c1ccc(-c2cccc(O)c2)cc1                  %   113
2  Cn1ncnc1C1c2n[nH]c(=O)c3cc(F)cc(c23)NC1c1ccc(F)cc1 (centres undefined) + NC1CCC(NC2CC2c2ccccc2)CC1                  %  92.5
3  CC1COCCN1c1cc(-c2ccnn2C)c2ccnc(-c3ccn[nH]3)c2n1 (centres undefined) + NC1CC1c1ccc(-c2cccc(O)c2)cc1                  %  55.4

Attention now shifts to the item below.
The reported value for O=C(C=Cn1cnc(-c2cc(C(F)(F)F)cc(C(F)(F)F)c2)n1)NNc1cnccn1 + NC1CC1c1ccc(-c2cccc(O)c2)cc1 in terms of viability, T/C is 12.4

====

System: NCI-H196 complex spheroid viability
assay_method_text: Anticancer human tumor NCI-H196 cell line growth inhibition [LSD1];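 note: spheroids exposed to agents for 7 days before readout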
condition_set: compound alone; run of 02/15/2022
pIC50: −log10 of the molar value.
property: pIC50

Bench note, NCI-H196 complex spheroid viability: NC1CCC(NC2CC2c2ccccc2)CC1 (stereo unspecified) , pIC50 reads < 5.00

====

Tested on: NCI-H196 complex spheroid viability
assay_method_text: Anticancer human tumor NCI-H196 cell line growth inhibition [LSD1];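 note: spheroids exposed to agents for 7 days before readout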;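 for viability, T/C: 100% = DMSO vehicle control viability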
condition_set: second compound 10 µM; first compound 0.01 µM; stronger effect = lower value
Each entry below lists one item and its recorded viability, T/C value.
Write it as a number; the unit % goes unstated.

Would you please look over these solved cases?
> print(dat)
                                   molecule                  experimental.target  unit.abbreviation   val
1  CC(C)CC(NC(=O)C(Cc1ccccc1)NC(=O)c1cnccn1)B(O)O (centres undefined) + NC1CCC(NC2CC2c2ccccc2)CC1  NCI-H196 complex spheroid viability                  %  1.45
2  CC1COCCN1c1cc(-c2ccnn2C)c2ccnc(-c3ccn[nH]3)c2n1 (centres undefined) + NC1CC1c1ccc(-c2cccc(O)c2)cc1  NCI-H196 complex spheroid viability                  %  81.2
3  CC(C)CC(NC(=O)CNC(=O)c1cc(Cl)ccc1Cl)B1OC(=O)CC(CC(=O)O)(C(=O)O)O1 (centres undefined) + NC1CCC(NC2CC2c2ccccc2)CC1  NCI-H196 complex spheroid viability                  %  75.7

Bench note, NCI-H196 complex spheroid viability: CC(C)CC(NC(=O)C(Cc1ccccc1)NC(=O)c1cnccn1)B(O)O (centres undefined) + NC1CC1c1ccc(-c2cccc(O)c2)cc1 , viability, T/C reads 1.21

====

Each entry below lists one item and its recorded viability, T/C value.
Tested on: NCI-H196 complex spheroid viability
assay_method_text: Anticancer human tumor NCI-H196 cell line growth inhibition [LSD1];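 note: spheroids exposed to agents for 7 days before readout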;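 for viability, T/C: 100% = DMSO vehicle control viability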
condition_set: second compound 0.316 µM; first compound 0.1 µM; stronger effect = lower value
Write it as a number; the unit % goes unstated.

Would you please look over these solved cases?
compound	experimental_target	viability, T/C, %
O=C(c1cc(Cc2n[nH]c(=O)c3ccccc23)ccc1F)N1CCN(C(=O)C2CC2)CC1 + NC1CCC(NC2CC2c2ccccc2)CC1	NCI-H196 complex spheroid viability	103
CC1(C)CCC(CN2CCN(c3ccc(C(=O)NS(=O)(=O)c4ccc(NCC5CCOCC5)c([N+](=O)[O-])c4)c(Oc4cnc5[nH]ccc5c4)c3)CC2)=C(c2ccc(Cl)cc2)C1 + NC1CC1c1ccc(-c2cccc(O)c2)cc1	NCI-H196 complex spheroid viability	101

Attention now shifts to the item below.
The reported value for COc1ccc([C@@H](O)c2cc(-c3ncnc4cc(N5CCOCC5)ccc34)c(F)cc2Cl)nn1 + NC1CC1c1ccc(-c2cccc(O)c2)cc1 in terms of viability, T/C is 90

Sourced from PubChem BioAssay AID1918958
